I'd appreciate it if you could supply melting point values for the items below.

Q. # get_value(readout='melting point', item= Cc1ccccc1NC(=O)Nc1ccc(CNC(=O)C2(CNC(=O)c3ccc(C(=O)OC(C)(C)C)cc3)CCCCC2)cc1 )
A. 187 to 189 °C

Q. # get_value(readout='melting point', item= COc1cccc(C(CC(=O)Nc2ccc(NC(=O)Nc3ccccc3C)cc2)NC(=O)c2ccc(C(=O)O)cc2)c1 (stereo not drawn) )
A. 275 to 280 °C

Q. # get_value(readout='melting point', item= COc1ccc(C(CC(=O)NCc2ccc(NC(=O)Nc3ccccc3C)cc2)NC(=O)c2ccc(C(=O)O)cc2)cc1OC (stereo not drawn) )
A. 214 °C

Q. # get_value(readout='melting point', item= COc1ccc(C(CC(=O)NCc2ccc(NC(=O)Nc3ccccc3C)cc2)NC(=O)c2ccc(C(=O)OC(C)(C)C)cc2)cc1OC (stereo not drawn) )
A. 223 to 226 °C

Q. # get_value(readout='melting point', item= COc1ccc(C(CC(=O)Nc2ccc(NC(=O)Nc3ccccc3C)cc2)NC(=O)c2ccc(C(=O)OC(C)(C)C)cc2)cc1OC (stereo not drawn) )
A. 210 to 215 °C

Q. # get_value(readout='melting point', item= COc1ccc(C(CC(=O)Nc2ccc(NC(=O)Nc3ccccc3C)cc2)NC(=O)c2ccc(C(=O)O)cc2)cc1OC (stereo not drawn) )
A. 166 °C
